molecular target: ER-alpha (Homo sapiens, UniProt P03372); experiment: ER-alpha transactivation (ERE-LUC luciferase) in HEK-293 cells; conditions: antagonist mode, in combination with estradiol; read-out: Antagonist ER-α;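 further: HEK-293 cells co-transfected with an ER-alpha expression plasmid, an ERE-driven firefly luciferase reporter and a CMV Renilla control, with the firefly signal normalized to Renilla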
Sequence (P03372 whole entry, species assumed): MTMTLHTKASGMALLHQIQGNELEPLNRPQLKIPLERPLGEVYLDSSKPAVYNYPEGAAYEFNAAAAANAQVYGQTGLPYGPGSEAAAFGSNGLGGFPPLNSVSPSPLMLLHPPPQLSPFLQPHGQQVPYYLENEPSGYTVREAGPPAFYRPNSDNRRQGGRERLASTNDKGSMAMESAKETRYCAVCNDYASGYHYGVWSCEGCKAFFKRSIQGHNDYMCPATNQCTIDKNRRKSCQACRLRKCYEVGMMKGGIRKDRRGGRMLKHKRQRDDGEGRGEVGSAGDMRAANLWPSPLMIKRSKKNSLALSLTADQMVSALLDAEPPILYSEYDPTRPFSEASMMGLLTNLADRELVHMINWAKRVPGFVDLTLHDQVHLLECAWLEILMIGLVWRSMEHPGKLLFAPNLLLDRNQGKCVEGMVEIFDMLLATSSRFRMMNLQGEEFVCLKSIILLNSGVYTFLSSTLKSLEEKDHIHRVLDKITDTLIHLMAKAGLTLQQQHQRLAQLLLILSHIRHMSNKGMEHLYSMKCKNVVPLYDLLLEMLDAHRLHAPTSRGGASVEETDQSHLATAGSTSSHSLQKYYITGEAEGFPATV
IC50 values by entry
Parameter: IC50

Compound: CCOC(=O)/C=C/c1cn(-c2ccc(OC)cc2)c(=O)c2c(O)cc(OC)cc12 [Compound 15j]
Target: ER-alpha (Homo sapiens, UniProt P03372)
Value Observed: > 10 µM
//
Compound: O=c1c2ccc(O)cc2c(-c2ccc(O)cc2)cn1-c1ccc(O)cc1 [Compound 6]
Target: ER-alpha (Homo sapiens, UniProt P03372)
Value Observed: > 10 µM
//
Compound: O=c1c2c(O)cc(O)cc2c(-c2ccccc2)cn1-c1ccc(O)cc1 [Compound 15h]
Target: ER-alpha (Homo sapiens, UniProt P03372)
Value Observed: 2.03 µM
//
Compound: COc1ccc(-c2cn(-c3ccc(O)cc3)c(=O)c3ccc(O)cc23)cc1 [Compound 15b]
Target: ER-alpha (Homo sapiens, UniProt P03372)
Value Observed: > 10 µM
//
Compound: CS(=O)(=O)c1ccc(-c2cn(-c3ccc(O)cc3)c(=O)c3ccc(O)cc23)cc1 [Compound 37]
Target: ER-alpha (Homo sapiens, UniProt P03372)
Value Observed: > 10 µM
